# assay_target: T1, human VEGF165 (human, UniProt P15692 207-395)
# T1 construct: Recombinant (R&D Systems 293-VE; sf21- or HEK 293-expressed depending on the assay); Biotinylated in the DELFIA assay; also called hVEGF165; rHu-VEGF165
# T1 sequence (P15692 other isoform, or with tags, fused parts or gaps limits assumed): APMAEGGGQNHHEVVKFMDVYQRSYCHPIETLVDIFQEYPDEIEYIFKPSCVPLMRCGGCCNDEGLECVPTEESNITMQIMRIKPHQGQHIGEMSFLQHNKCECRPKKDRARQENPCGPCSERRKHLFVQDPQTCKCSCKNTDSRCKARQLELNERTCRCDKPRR
# assay: Biacore 2000, hVEGF165 amine-coupled on C1 chip, antibody injected, 1:1 fit
measured_metric: koff (s⁻¹)
// units = s⁻¹; emit number, no label

XPA.10.064.04 IgG2 (antibody, V domains shown, IgG2) VH: EVQLVQSGAEVRKPGASVKVSCKASGYSFTGHYIHWVRQAPGQGLEWMGWINPYSGGTNFPREFQGRVTMTRDTSVNTVYMELTRLTSDDTSVYYCARDEMQNGGLDYWGQGTLVTVSS VL: SYVLTQPPSASGTPGQRVTISCSGSSSNIGINYVYWYQQLPGTAPKLLIYRNDQRPSGVPDRFSGSKSGTSASLAISGLRSEDEADYYCATWDDSLSGVVFGGGTKVTVL; 2.94e-05

Consider the additional binder presented here.
### Prompt I'd like to know its koff. The binder in question is XPA.10.064.10 IgG2 (antibody, V domains shown, IgG2) VH: EVQLVQSGAEVRKPGASVKVSCKASGYSFTGHYIHWVRQAPGQGLEWMGWINPYSGGTNFPREFQGRVTMTRDTSVNTVYMELTRLTSDDTSVYYCARDEMVWGGLDYWGQGTLVTVSS VL: SYVLTQPPSASGTPGQRVTISCSGSSSNIGINYVYWYQQLPGTAPKLLIYRNDQRPSGVPDRFSGSKSGTSASLAISGLRSEDEADYYCATWDDSLSGVVFGGGTKVTVL
### Response 1.16e-05

Values compiled from patent US20110097340A1.
